Measured fold change in ompA expression, geometric mean (95% C.I.), listed per entry for reference.
System: F. nucleatum virulence genes
assay.procedure: Virulence gene expression in multi-species biofilm (SYBR RT-qPCR)
Assay type: cell-based
stated.conditions: substrate 1 M; relative to control = 1, 2^-ΔΔCt; n = 3

Example cases with answers are listed next.
# compound, target.or.test.system, measurement
measured = [
    ("OC[C@H]1O[C@@H](O[C@H]2[C@H](O)[C@@H](O)[C@@H](O)O[C@@H]2CO)[C@H](O)[C@@H](O)[C@H]1O", "F. nucleatum virulence genes", "1.26 (0.79-2.03) fold"),
    ("OC[C@H]1O[C@H](OC[C@H]2O[C@H](O[C@]3(CO)O[C@H](CO)[C@@H](O)[C@@H]3O)[C@H](O)[C@@H](O)[C@@H]2O)[C@H](O)[C@@H](O)[C@H]1O [D-raffinose, D-(+)-raffinose]", "F. nucleatum virulence genes", "1.07 (0.49-2.36) fold"),
]

In: Request - read-out fold change in ompA expression, geometric mean (95% C.I.) | tested on F. nucleatum virulence genes | compound CC(=O)N[C@H]1C(O)O[C@H](CO)[C@@H](O)[C@@H]1O (stereo partly shown)
Out: 1.33 (0.78-2.25) fold

In: Request - read-out fold change in ompA expression, geometric mean (95% C.I.) | tested on F. nucleatum virulence genes | compound OC[C@H]1O[C@H](O[C@H]2O[C@H](CO)[C@@H](O)[C@H](O)[C@H]2O)[C@H](O)[C@@H](O)[C@@H]1O [D-trehalose, D-(+)-trehalose]
Out: 1.23 (0.98-1.53) fold

---

System: multi-species biofilm (beneficial/commensal species, periodontal pathogens, cariogenic pathogens)
assay.procedure: Multi-species biofilm composition, relative proportions and group changes
Format: cell-based
stated.conditions: Table 3, separate experiments; concentration not given
readout.label: relative proportion of beneficials/commensals in biofilm

Example cases with answers are listed next.
# molecule, measurement
data = [
    ("CC(=O)N[C@H]1C(O)O[C@H](CO)[C@@H](O)[C@@H]1O (stereo partly shown)", "60.07 (+/- 8.25) % (Geq/mL)"),
    ("OC[C@H]1O[C@H](OC[C@H]2O[C@H](O[C@]3(CO)O[C@H](CO)[C@@H](O)[C@@H]3O)[C@H](O)[C@@H](O)[C@@H]2O)[C@H](O)[C@@H](O)[C@H]1O [D-raffinose, D-(+)-raffinose]", "64.27 (+/- 1.84) % (Geq/mL)"),
    ("OC[C@H]1O[C@@H](O[C@H]2[C@H](O)[C@@H](O)[C@@H](O)O[C@@H]2CO)[C@H](O)[C@@H](O)[C@H]1O", "64.14 (+/- 9.81) % (Geq/mL)"),
]

In: Report relative proportion of beneficials/commensals in biofilm for OC[C@H]1O[C@H](O[C@H]2O[C@H](CO)[C@@H](O)[C@H](O)[C@H]2O)[C@H](O)[C@@H](O)[C@@H]1O [D-trehalose, D-(+)-trehalose] please.
Out: 73.55 (+/- 2.84) % (Geq/mL)

---

System: S. salivarius
assay.procedure: Multi-species biofilm composition, absolute abundance (Geq/mL)
Type: cell-based
stated.conditions: substrate 1 M in PBS, repeated rinsing, n = 3
Measured absolute abundance of S. salivarius, mean ± SD log (Geq/mL), listed per entry for reference.

# compound, measurement
records = [
    ("CC(=O)N[C@H]1C(O)O[C@H](CO)[C@@H](O)[C@@H]1O (stereo partly shown)", "6.40 ± 0.29^∗ log (Geq/mL)"),
    ("OC[C@H]1O[C@@H](O[C@H]2[C@H](O)[C@@H](O)[C@@H](O)O[C@@H]2CO)[C@H](O)[C@@H](O)[C@H]1O", "6.95 ± 0.14^∗ log (Geq/mL)"),
    ("OC[C@H]1O[C@H](O[C@H]2O[C@H](CO)[C@@H](O)[C@H](O)[C@H]2O)[C@H](O)[C@@H](O)[C@@H]1O [D-trehalose, D-(+)-trehalose]", "6.19 ± 0.07^∗ log (Geq/mL)"),
]

// next item, absolute abundance of S. salivarius, mean ± SD log (Geq/mL) requested
In: Report absolute abundance of S. salivarius, mean ± SD log (Geq/mL) for OC[C@H]1O[C@H](OC[C@H]2O[C@H](O[C@]3(CO)O[C@H](CO)[C@@H](O)[C@@H]3O)[C@H](O)[C@@H](O)[C@@H]2O)[C@H](O)[C@@H](O)[C@H]1O [D-raffinose, D-(+)-raffinose] please.
Out: 6.29 ± 0.21^∗ log (Geq/mL)
